- target_or_system: T1, human Trop-2 on the surface of cells (CHO/Trop-2 cells; BxPC-3 cells; NCI-N87 cells) (human, UniProt P09758 27-323)
- T1 construct: whole, on cells; One molecule for all cell lines; the cell line is named under assay or readout; also called Trop-2 on the surface of CHO cells; recombinant human Trop-2 protein on the surface of CHO cells
- T1 sequence (looked up): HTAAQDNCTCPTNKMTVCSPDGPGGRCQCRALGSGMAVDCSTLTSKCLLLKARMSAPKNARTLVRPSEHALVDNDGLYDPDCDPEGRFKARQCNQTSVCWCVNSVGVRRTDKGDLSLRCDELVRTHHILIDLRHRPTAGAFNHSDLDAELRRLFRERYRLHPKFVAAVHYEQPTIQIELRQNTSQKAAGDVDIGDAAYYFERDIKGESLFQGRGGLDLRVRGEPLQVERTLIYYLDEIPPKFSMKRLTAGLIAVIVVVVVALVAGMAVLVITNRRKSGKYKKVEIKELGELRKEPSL
- method: FACS, CHO/Trop-2 cells
reported_metric: pEC50
One number for each entry, as −log10 of the molar value.

Which measured pEC50 value corresponds to chimeric antibody ch11-4 (antibody, human IgG1, V domains shown) VH: QVQLQQPGAELVRPGASVNLSCKASGYTFTSYWINWVKQRPGQGLEWIGNIYPSNSYTNYNQKFKDTATLTVDKSSSTAYMQLSSPTSEDSAVYFCSSYRSDGFAYWGQGTLVTVSA VL: DILLTQSPAILSVSPGEKVSFSCRASQNIGTSIHWYQQRTNGSPRLLIEFASESISGIPSRFSGSGSGTDFTLTINSVESEDIADYYCQQSNSWPFTFGGGTKLEIK ? 8.94
